From: patent US20250099420A1

- System: parental HEK cells
- experiment.summary: HEK parental Agonist Counterscreen Assay (non-transfected cells)
- Assay type: cell-based
- assay.context: HEK Agonist Activity; activity relative to known control
For each of the molecules below, state its Averaged Max % Response (±St. Dev.).
Answers are plain numbers, in %.

Would you please look over these solved cases?
{"columns": ["molecule", "experimental.target", "units.of.measure", "Averaged Max % Response (±St. Dev.)"],
 "data": [
  ["CCCCn1c(C)c(N(CC)C(=O)C(C)(C)Oc2ccc(C)cc2)c(=O)[nH]c1=O", "parental HEK cells", "%", 4.62],
  ["Cc1cc(C(=O)CCC(=O)NNC(=O)CSc2nc3ccccc3s2)c(C)s1", "parental HEK cells", "%", "−5.74"]
]}

Give measured Averaged Max % Response (±St. Dev.) for every item shown.
1. CCC1Cc2ccc(C)cc2CC1C(=O)Nc1ccc(-c2cn[nH]c2)cc1OCCN(C)C (stereo not shown)
2. CCCn1c(CCC(=O)NCCc2ccc(OCC)cc2)nc2cccnc21
3. COc1ccc(CCNC(=O)COc2ccc(Cl)cc2Cl)cc1
4. CC(C(=O)NCCc1ccc(Cl)cc1)n1ncn2cccc2c1=O (stereo not shown)
5. COc1ccc(OC)c(NC(=O)NNC(=O)C(C)Oc2ccc(Cl)cc2Cl)c1 (stereo not shown)
6. Cc1cccc(CCNC(=O)c2c[nH]c3cc(-c4cn[nH]c4)ccc23)c1

1. 10.53
2. 1.00
3. 5.28
4. 19.72
5. 6.40
6. 17.20

Give measured Averaged Max % Response (±St. Dev.) for every item shown.
1. Cn1cnnc1SCc1ccc(F)c2ccccc12
2. Cc1cc(C(=O)CCC(=O)NNC(=O)c2ccc(COc3ccccc3)cc2)c(C)o1
3. CC(C)CCNC(=O)C1C2C=CC3(CN(Cc4ccccc4Cl)C(=O)C13)O2 (stereo not shown)
4. COP(=O)(CN(CCc1ccc(Cl)cc1)C(=O)Nc1ccc(Cl)c(Cl)c1)OC
5. COc1ccc(C2(C)NC(=O)N(CC(=O)NC3CCCC3)C2=O)cc1 (stereo not shown)
6. CCc1cccc(NC(=O)Cn2ncc3c2-c2ccccc2OC3)c1
7. COc1cc(OC)cc(C(=O)NNC(=O)C(C)Oc2ccc(Cl)cc2Cl)c1 (stereo not shown)

1. 9.45
2. 7.00
3. 8.02
4. 0.77
5. 16.28
6. 16.33
7. 22.28

For the 4 molecules below, give their Averaged Max % Response (±St. Dev.) values.
1. Cc1cc(Cl)ccc1OC(C)C(=O)NNC(=O)c1ccccc1 (stereo not shown)
2. COc1ccccc1OCC(=O)NCCc1ccc2c(c1)CCCN2C
3. CC1(c2ccc(Cl)cc2)NC(=O)N(CC(=O)NCc2cccs2)C1=O (stereo not shown)
4. O=C(CC(C(=O)N1CCc2ccccc21)n1ccnc1)NCC1COc2ccccc2O1 (stereo not shown)

2.95
−5.46
4.84
−9.40

###

- Test system: parental HEK cells
- experiment.summary: HEK parental Agonist Counterscreen Assay (non-transfected cells)
- Format: cell-based
- assay.context: Homo sapiens, HEK293; HEK Agonist Activity section of Table 4 (parental HEK counterscreen)
pEC50: −log10 of the molar value.
What pEC50 was measured for each of the following?

// worked examples, pEC50 included
{"columns": ["compound", "pEC50"],
 "data": [
  ["COc1ccccc1NC(=O)C(=O)NNC(=O)COc1ccc(Br)cc1C [SR-01000325257]", "< 4.85"],
  ["Cc1ccc(CN2CCN(CC(=O)NCCc3ccc(Cl)cc3)C2=O)c(Cl)c1 [SR-01000125626]", "< 4.85"],
  ["O=C(CN1CCCc2ccccc21)NNC(=O)Nc1ccc(Cl)c(Cl)c1 [SR-01000029575]", "< 4.84"],
  ["CCCc1ccc(NC(=O)CCc2nc3c(c(=O)n2C)CCC3)cc1 [SR-01000017533]", "< 4.85"],
  ["Cc1ccc(Br)cc1S(=O)(=O)NCCC(=O)NCCc1sccc1C [SR-01000101329]", "< 4.85"],
  ["O=C(NCCn1ccc2ccccc21)c1cccc(Br)c1 [SR-01000124135]", "< 4.85"]
]}

Need pEC50 for each of these compounds.
1. O=C(Cc1cccc2ccccc12)NCC(=O)NNC(=O)c1ccco1 [SR-01000069451]
2. Cc1ccccc1-c1nnc(CN2CCc3ccccc3C2)o1 [SR-01000162178]
3. Nc1ccc(C(=O)OCC(=O)NC2CCCc3ccccc32)cc1[N+](=O)[O-] (centres unmarked) [SR-01000034627]
4. Cc1cc(Br)ccc1OCC(=O)NNC(=O)c1ccccc1C [SR-01000318521]

1: < 4.84; 2: < 4.85; 3: < 4.82; 4: < 4.85

Quick batch: pEC50 for everything below.
1. O=C(CN1C(=O)NC2(CCc3ccccc3C2)C1=O)N1CCc2ccccc2C1 (centres unmarked) [SR-01000062726]
2. Cc1ccccc1SCC(=O)NNC(=O)c1ccc(Br)s1 [SR-01000069352]
3. COc1ccc(C)cc1NC(=O)NNC(=O)C(C)Oc1ccc(F)cc1Cl (centres unmarked) [SR-01000277633]
4. CC1CCCCN1C(=O)CN1C(=O)C2(CCc3ccccc3C2)NC1=S (centres unmarked) [SR-01000044433]
5. CCN(Cc1ccccc1)C(=O)Cn1cnc2sc(O)c(C)c2c1=O [SR-01000468553]
6. CC1C(CC(=O)NCC(=O)CCC2=Cc3ccccc3C2)=Nc2ccccc21 (centres unmarked) [SR-01000068608]
7. Cc1cc(-c2nnc(NC(=O)CCc3ccccc3)o2)n(C)n1 [SR-01000920602]

1: < 4.84; 2: < 4.84; 3: < 4.85; 4: < 4.84; 5: < 4.73; 6: < 4.84; 7: < 4.85

Please state, for each entry, its recorded pEC50.
1. COc1cc(OC)cc(C(=O)NNC(=O)CCc2ccccc2)c1 [SR-01000359572]
2. CCOC(=O)C1CCN(C(=O)C2CC(Cc3cccc4ccccc34)=NO2)CC1 (centres unmarked) [SR-01000185621]
3. O=C(COc1ccc2ccccc2c1)NNC(=O)Cc1cccc2ccccc12 [SR-01000316766]

< 4.85
< 4.85
< 4.85

###

- experimental.target: GPR139 (Homo sapiens)
- Sequence (Q6DWJ6 1-353): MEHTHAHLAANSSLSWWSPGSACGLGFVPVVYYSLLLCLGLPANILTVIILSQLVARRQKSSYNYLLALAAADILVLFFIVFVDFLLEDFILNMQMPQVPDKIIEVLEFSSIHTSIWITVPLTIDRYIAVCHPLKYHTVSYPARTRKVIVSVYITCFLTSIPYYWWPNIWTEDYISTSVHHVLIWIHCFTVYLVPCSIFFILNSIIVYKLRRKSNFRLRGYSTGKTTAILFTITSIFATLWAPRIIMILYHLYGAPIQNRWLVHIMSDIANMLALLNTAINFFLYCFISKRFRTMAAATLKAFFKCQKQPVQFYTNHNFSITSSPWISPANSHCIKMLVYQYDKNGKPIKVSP
- experiment.summary: GPR139 Agonist titration / agonist counterscreen assay (calcium detection, HEK-GPR139 cells)
- Type: cell-based
- Design: expressed in transfected cells; host or cells: HEK Aequorin cells, Maxcyte transient transfection
- assay.context: GPR139 Agonist Activity; based on logD
Param threshold (4) applies to Lipophilic Efficiency (logD); output 1 when value >= threshold, 0 when value < threshold.

{"columns": ["molecule", "discrete.label"],
 "data": [
  ["CCN(CCCNC(=O)CN1CCC(Cc2ccccc2C)C1=O)c1cccc(C)c1 (centres unmarked) [SR-01000150393]", 0],
  ["O=C(Nc1ccc(-c2cn[nH]c2)cc1OCCN1CCCC1)C1COc2ccc(F)cc2C1.O=C(O)C(F)(F)F.O=C(O)C(F)(F)F (centres unmarked) [SR-00000005389]", 1],
  ["Cc1ccc(CN2CCN(CC(=O)N3CC(C)CC(C)C3)C2=O)cc1 (centres unmarked) [SR-01000150389]", 1],
  ["O=C(CSc1ccc2ccccc2c1)NNC(=O)c1ccc(Br)s1 [SR-01000069345]", 1],
  ["Cn1c(CC(=O)NNC(=O)CSc2ccc3ccccc3c2)nc2ccccc21 [SR-01000068729]", 1],
  ["CC(CCc1ccccc1)NC(=O)c1ccc2c(c1)C(Cc1ccccc1)C(=O)C[S+]2[O-] (centres unmarked) [SR-01000129880]", 0]
]}

Next item in the queue.
Test whether the molecule Cc1cccnc1NC(=O)Cn1ncc2c1-c1ccccc1OC2 [SR-01000152365] records Lipophilic Efficiency (logD) of 4 or higher.
1

###

Provide the recorded pEC50 for the entries that follow.
- experimental.target: UniProtKB Q6DWJ6
- experiment.summary: GPR139 Agonist titration / agonist counterscreen assay (calcium detection, HEK-GPR139 cells)
- Format: cell-based
- Parameters: expressed in transfected cells; host or cells: HEK Aequorin cells, Maxcyte transient transfection
- assay.context: GPR139 Agonist Activity; HEK-GPR139 cells; read-out: EC50
Answers are plain numbers, as −log10 of the molar value.

{"columns": ["compound", "value.measured"],
 "data": [
  ["O=C(NCCCn1ccnc1)c1cc2nc3c(c(C(F)(F)F)n2n1)CCc1ccccc1-3", 6.48]
]}

# return pEC50 for each item in the list
1. COC(=O)c1ccc(NC(=O)CNC(=O)C2CCCCC2)c(C)c1
2. COc1ccc(CCn2nc(-c3cccnc3)[nH]c2=O)cc1
3. CCCc1nn(CC(=O)NCc2nc3ccccc3n2C)c(=O)c2cc3ccsc3n12

[6.26, 5.89, 5.80]

For every item in the list below, what is its measured pEC50?
1. Cc1ccc(NC(=O)NCCCc2ccccc2)cc1
2. Cc1cc(-c2nnc(NC(=O)CCc3ccccc3)o2)n(C)n1
3. COc1cccc(COC(=O)NC(C)C2COc3ccccc3O2)c1 (stereo not drawn)
4. Cc1cccc(C(=O)NNC(=O)CCc2ccccc2)c1
5. N#Cc1ccc(OC(=O)COc2cccc3ccccc23)cc1
6. Cc1ccc(CCC(=O)NNC(=O)CCc2ccccc2)c(Br)c1
7. O=C(CCc1ccccc1)Nc1nnc(Cc2cccs2)o1

[5.43, 6.49, 6.15, 6.34, 6.19, 6.14, 6.41]
